- ASSAYED SYSTEM: glucose-6-phosphate dehydrogenase-6-phosphogluconolactonase (Plasmodium falciparum 3D7)
- METHOD NOTES: concentration-dependent PfGluPho enzyme inhibition – biochemical, fluorescence intensity, dose response (AID 504765)
- CONDITION PARAMETERS: Recombinant PfG6PD enzyme, fluorescence intensity (NADPH)
Calls of active or inactive are those of the source. No rule for the calls is given here.
Labels: active, inactive

O=C1Nc2cc(C(=O)NCCCN3CCCC3)ccc2S/C1=C\c1ccccc1 : active
Cc1ccc(-c2csc(NC(=O)c3ccccc3F)c2C(=O)O)cc1 : active
CCOC(=O)c1sc(NC(=O)CSc2nnc(Cc3ccccc3)o2)c(C#N)c1C : inactive
Cc1cc(C)c2c(=O)n(CC(=O)NC3CCCC3)sc2n1 : active
O=C(O)c1ccccc1NS(=O)(=O)c1cccc(-n2sc3ccccc3c2=O)c1 : active
Cn1c(=O)c2c([nH]c(=S)n2CCCc2ccccc2)n(C)c1=O : active
CN1/C(=C\C(=O)c2cccs2)Sc2ccccc21 : active
CCOC(=O)Cc1csc(-n2sc3ccccc3c2=O)n1 : active
COc1cc(/C=C2\CC/C(=C\c3cc(OC)c(O)c(OC)c3)C2=O)cc(OC)c1O : active
COc1cccc(C=Nc2cc(C(C)C)c(O)cc2C)c1O : active
CCN1CCN(c2nc(C)nc3c2sc(=S)n3C)CC1 : active
COC1=C(Br)C(=O)c2nc(C)ccc2C1=O : active
Cc1ccc(-c2c(C(=O)N/N=C/c3ccc(C)o3)nnn2-c2nonc2N)cc1 : active
CN(C)c1ccc(C=c2c3ccccc3n3c2c2ccccc2[n+]3C)cc1 : active
CC(C)(C)c1ccc(O)c(O)c1 : inactive
C=CCN1CCc2cccc3c2[C@H]1Cc1ccc(O)c(O)c1-3 : active
Clc1ccc2nc(-c3ccc(Br)s3)cn2c1 : active
CCSc1nc2cc(S(=O)(=O)N3CCOCC3)ccc2o1 : inactive
O=C1C=CC2=C3c4cc(O)c(O)cc4CC3(O)COC2=C1O (stereo not given) : active
CCCCOc1ccc(Cc2n[nH]c(=S)n2N)cc1 : inactive
C=CCOc1ccc(CNc2ccc3[nH]c(=O)[nH]c3c2)cc1OC : active
CN(C)C=Nc1ccc2nc3c(cc2c1)[nH]c1ccccc13 : active
CCNc1nc(NC(C)C)nc(NS(=O)(=O)c2ccc(Cl)cc2)n1 : active
COc1ccc(S(=O)(=O)Nc2cc(SCC(=O)O)c(O)c3ccccc23)cc1 : active
Cc1ccc(S(=O)(=O)C=CS(=O)(=O)c2ccc(C)cc2)cc1 : active
CCCCC1C(=O)N(c2ccccc2)N(c2ccc(O)cc2)C1=O (stereo not given) : active
NCCNc1ccc(C(=O)N2c3ccccc3Sc3ccccc32)cc1[N+](=O)[O-] : active
COc1ccc(C(=O)c2c(C(F)(F)F)oc3c2C(=O)c2ccccc2C3=O)cc1 : inactive
C/C(Cn1nnc([N+](=O)[O-])n1)=N\NC(=O)c1ccc(O)cc1 : active
CCC(CO)[n+]1c(C)cc(/C=C2\Sc3ccccc3N2Cc2ccccc2)cc1C (stereo not given) : active
CC(=O)Nc1ccc2c(c1)Cc1cc(N3C(=O)C=CC3=O)ccc1-2 : active
O=c1c2ccccc2sn1-c1ccc(S(=O)(=O)N2CCCCC2)cc1 : active
Cc1ccc2nc3sc(C(=O)N4CCOCC4)c(N)c3cc2c1 : active
COc1cccc(/C=N/NC(=O)c2c(C)nc3ccc(Br)cn23)c1 : active
Cc1ccc(S(=O)(=O)SC/C=C/CSS(=O)(=O)c2ccc(C)cc2)cc1 : active
O=C1NC(=O)N(c2ccccc2)C(=O)/C1=C/c1ccc([N+](=O)[O-])s1 : active
COc1ccc(Cl)cc1NC(=O)c1cccc([N+](=O)[O-])c1O : active
N#Cc1c(C#N)c(SSc2c(C#N)c(C#N)c(N)n2-c2ccccc2)n(-c2ccccc2)c1N : active
O=C1C=C(NCCc2cc(Br)c(O)c(Br)c2)C(=O)c2ncccc21 : active
COC1=CC(=O)C=C(OC)C1(O)CC(C)=O : active
COc1cc(NCCCn2ccc(NC(=O)OCc3ccccc3)nc2=O)cc(OC)c1OC : active
CCOC(=O)c1c2ccc(OCC(=O)NN)cc2n2ccccc12 : active
Cc1ccc(-c2nc(N)s[n+]2-c2ccccc2)cc1 : active
COCc1cc(=O)n2[nH]c(C(C)(C)C)cc2n1 : active
COc1cc(NCCCn2cnc3c(OCc4ccccc4)ncnc32)cc(OC)c1OC : inactive

----------
- ASSAYED SYSTEM: glucose-6-phosphate dehydrogenase-6-phosphogluconolactonase (Plasmodium falciparum 3D7)
- METHOD NOTES: concentration-dependent PfGluPho enzyme inhibition – biochemical, fluorescence intensity, dose response (AID 504765)
- CONDITION PARAMETERS: Recombinant PfG6PD enzyme, fluorescence intensity (NADPH)
Activity calls are given as the source filed them. No rule for the calls is given here.
Labels: label 1 (active), label 0 (inactive)

O=C(Nc1ccccn1)c1sc2cc([N+](=O)[O-])ccc2c1Cl : label 0
COc1ccc(-c2cn3cc(C)ccc3n2)cc1Br : label 1
CN(C)c1ccc2nc3ccc(=O)cc-3sc2c1 : label 1
O=c1ccsn1Cc1ccccc1 : label 1
CCCCCCCCSC1=CC(=O)C(OC)=C(OC)C1=O : label 1
Cn1c(-c2sccc2OCc2cccc(C(F)(F)F)c2)n[nH]c1=S : label 0
Cc1ccc(NC(=O)c2cc(N3C(=O)C=CC3=O)ccc2N2CCOCC2)cc1Cl : label 1
Brc1cc2[nH]cnc2c2ccccc12 : label 1
CN(C)c1ccc(C=c2c3cc([N+](=O)[O-])ccc3n3c2cc(-c2ccccc2)[n+]3C)cc1 : label 1
O=C(Nc1ccccc1C(=O)N/N=C/c1ccco1)c1ccccc1Cl : label 1
O=c1c2ccc(F)cc2sn1-c1ccccc1 : label 1
O=C(Cn1sc2ccccc2c1=O)Nc1ccc(F)cc1 : label 1
Cc1ccc(N2CC(C(=O)OCC(=O)c3ccc([N+](=O)[O-])cc3)CC2=O)cc1 (configuration not stated) : label 1
c1ccc(SSc2ccccn2)nc1 : label 1
CCOC(=O)c1cnc2ccc(C)cc2c1Sc1ccccc1C(=O)OC : label 1
COc1cc(N=c2ssnc2Cl)cc(OC)c1 : label 1
COc1ccc(C(=O)ON=C2C=C(C)C(=O)C(C)=C2)cc1 : label 0
O=C1C=CC(=O)N1CCCCCCCCCCN1C(=O)C=CC1=O : label 1
C=CCc1c(C)[nH]c(=S)c(C#N)c1C : label 1
O=C1C(c2cc(=O)c3ccccc3[nH]2)=C(O)c2ccccc21 : label 1
O=C(CNC(=O)c1ccc(Br)cc1)NCC(=O)OCC(=O)c1ccc([N+](=O)[O-])cc1 : label 1
c1cc(CNc2ccc3c(c2)OCO3)ccn1 : label 0
O=C(CSc1nc2cc(Cl)ccc2s1)c1ccco1 : label 1
O=C(CNC(=O)c1ccccc1)NCC(=O)OCC(=O)c1ccc([N+](=O)[O-])cc1 : label 0
O=c1c2cc(C(F)(F)F)ccc2sn1-c1ccccc1 : label 1
Cc1ccc(CNc2ccc(O)cc2)cc1 : label 1
Cc1nc(COC(=O)c2cc(O)c3ccccc3c2O)cs1 : label 1
Cc1ccc(S(=O)(=O)NNc2ccccc2)cc1 : label 0
N#Cc1ccc(N=c2ssnc2Cl)cc1 : label 1
CCC(C)(C)c1nnc(NC(=O)C2CCN(C(=O)c3ccco3)CC2)s1 : label 0
C=CCOc1c(Cl)cc(CNc2ccc(N(C)C)cc2)cc1OC : label 1
CN1CCc2cc(O)cc3c2[C@H]1Cc1ccc(O)c(O)c1-3 : label 1
COc1ccc2ccccc2c1C1CC(=O)N2CN(C3CCCCC3)CSC2=C1C#N (configuration not stated) : label 1
COCCNC(=S)Nc1ccc(N2CCOCC2)c(S(=O)(=O)Nc2ccc(Cl)cc2)c1 : label 1
CC(=O)Nc1ccc(S(=O)(=O)/N=C2\C(=O)c3ccccc3C([O-])=C2n2cc[n+](-c3ccccn3)c2)cc1 : label 1
O=C1C=CC(=O)N1c1ccc(N2CCCCC2)cc1 : label 1
O=C(Nc1ccc(N2CCCC2)cc1)c1cccc(-c2cc3ccccc3oc2=O)c1 : label 0
Cc1cc(C)nc(/N=C(\N)Nc2ccccc2-c2ccccc2)n1 : label 1
COc1ccc(CCn2c(NN)nc3c2c(=O)[nH]c(=O)n3C)cc1 : label 1
COc1ccc(CNC(=O)Cc2cn(C)c3ccccc23)c(OC)c1 : label 1
Cc1ccc(/C=C/C(=O)NC2CCCCCCC2)o1 : label 1
COC1=C(OC)C(=O)C(Sc2ccc3ccccc3c2)=CC1=O : label 1
O=C(O)CSc1cc(NS(=O)(=O)c2ccc(Cl)cc2)c2ccccc2c1O : label 1
O=[N+]([O-])c1cccc(SSc2cccc([N+](=O)[O-])c2)c1 : label 1
COc1ccc(C(=O)c2c(C(F)(F)F)oc3c2C(=O)c2ccccc2C3=O)cc1OC : label 0
CC1COCC(C)N1C1=C(Cl)C(=O)c2ccccc2C1=O (configuration not stated) : label 1
C=CCc1ccccc1OCC(=O)N/N=C/c1ccccc1OCC : label 1
